These measurements were taken from patent US20240270762A1.

MIC values by entry
System: A. baumannii ATCC 19606
EXPERIMENT: microbe, parasite or virus in culture
Assay type: cell-based
REPORTED CONDITIONS: Acinetobacter baumannii, ATCC19606, read-out: MIC, A. baumannii ATCC 19606
PROPERTY MEASURED: MIC

# COMPOUND, ASSAY TARGET, PROPERTY MEASURED, RECORDED VALUE
records = [
    ("O=C(O)c1c(F)ccc2c1OB(O)[C@@H](NC(=O)C(NC(=O)N1CCN(C3CCN(S(=O)(=O)c4cccc(O)c4)CC3)C(=O)C1=O)c1cc(F)c(O)c(O)c1Cl)C2 (some centres unmarked) [Example 428]", "A. baumannii ATCC 19606", "MIC", "< 1 µg/mL"),
    ("O=C(NCCN1CCN(C(=O)NC(C(=O)N[C@H]2Cc3ccc(F)c(C(=O)O)c3OB2O)c2cc(F)c(O)c(O)c2Cl)C(=O)C1=O)c1ccc(O)cc1 (some centres unmarked) [Example 214]", "A. baumannii ATCC 19606", "MIC", "< 1 µg/mL"),
    ("O=C(NCCCN1CCN(C(=O)NC(C(=O)N[C@H]2Cc3ccc(F)c(C(=O)O)c3OB2O)c2cc(F)c(O)c(O)c2Cl)C(=O)C1=O)c1ccc(O)c(F)c1 (some centres unmarked) [Example 304]", "A. baumannii ATCC 19606", "MIC", "< 1 µg/mL"),
    ("O=C(NCCCN1CCN(C(=O)N[C@H](C(=O)N[C@H]2Cc3ccc(F)c(C(=O)O)c3OB2O)c2cc(F)c(O)c(O)c2Cl)C(=O)C1=O)c1cccc(O)c1Cl [Example 302]", "A. baumannii ATCC 19606", "MIC", "32 to 64 µg/mL"),
    ("O=C(O)c1c(F)ccc2c1OB(O)[C@@H](NC(=O)C(NC(=O)N1CCN(C3CCN(C(=O)Nc4ccc(F)c(O)c4F)CC3)C1=O)c1cc(F)c(O)c(O)c1Cl)C2 (some centres unmarked) [Example 452]", "A. baumannii ATCC 19606", "MIC", "< 1 µg/mL"),
    ("O=C(O)c1c(F)ccc2c1OB(O)[C@@H](NC(=O)[C@@H](NC(=O)N1CCN(Cc3ccc(O)c(O)c3Cl)C(=O)C1=O)c1cccc(P(=O)(O)O)c1)C2 (single isomer, unassigned) [Example 162]", "A. baumannii ATCC 19606", "MIC", "< 1 µg/mL"),
    ("O=C(NCCCN1CCN(C(=O)NC(C(=O)N[C@H]2Cc3ccc(F)c(C(=O)O)c3OB2O)c2cc(F)c(O)c(O)c2Cl)C(=O)C1=O)c1cc(O)cc(F)c1 (some centres unmarked) [Example 410]", "A. baumannii ATCC 19606", "MIC", "< 1 µg/mL"),
    ("O=C(O)c1c(F)ccc2c1OB(O)[C@@H](NC(=O)C(NC(=O)N1CCN(C3CCN(C(=O)Nc4cccc(O)c4)CC3)C(=O)C1=O)c1cc(F)c(O)c(O)c1Cl)C2 (some centres unmarked) [Example 424]", "A. baumannii ATCC 19606", "MIC", "< 1 µg/mL"),
    ("O=C(NCCCN1CCN(C(=O)NC(C(=O)N[C@H]2Cc3ccc(F)c(C(=O)O)c3OB2O)c2cc(F)c(O)c(O)c2Cl)C(=O)C1=O)c1nccs1 (some centres unmarked) [Example 211]", "A. baumannii ATCC 19606", "MIC", "< 1 µg/mL"),
    ("O=C(NCCN1CCN(C(=O)NC(C(=O)N[C@H]2Cc3ccc(F)c(C(=O)O)c3OB2O)c2cc(F)c(O)c(O)c2Cl)C(=O)C1=O)c1cccnc1 (some centres unmarked) [Example 217]", "A. baumannii ATCC 19606", "MIC", "2 to 4 µg/mL"),
    ("O=C(NCCCN1CCN(C(=O)N[C@@H](C(=O)N[C@H]2Cc3ccc(F)c(C(=O)O)c3OB2O)c2cc(F)c(O)c(O)c2Cl)C(=O)C1=O)c1c(F)cc(O)cc1F (racemic) [Example 420]", "A. baumannii ATCC 19606", "MIC", "< 1 µg/mL"),
]
